B1: F1*; the commonest letter at each place (parent)
chain: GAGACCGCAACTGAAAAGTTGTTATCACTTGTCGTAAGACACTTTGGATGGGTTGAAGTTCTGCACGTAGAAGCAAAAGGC

# Variants of: B1
# assay comment: fraction ligated after 30 min (ligated reads / total reads); higher = more ligase activity
# condition info: with F1*sub RNA substrate (template-directed ligation), 42 °C
Measured fraction ligated by item

Some solved cases for reference:
A24T A36G
0.519
A48C G55C
0.16
C28G A36C
0.759

For G34C T35A , what is its reported fraction ligated?
0.815

// next record C33T A39C
0.804

// next record T25G G34A
0.77

// next record T45A A56C
0.782

// next record A36G A41G
0.788

// next record T29C A48C
0.745

// next record A37C T45G
0.415

// next record A27G T43A
0.829

// next record G38A G46A
0.805

// next record T30C G31A
0.779

// next record T35G G50T
0.795

// next record A37G G55T
0.834

// next record G55A A57C
0.786

The measured values listed here are drawn from the supplement of paper PMC6755084.
